Where these numbers come from: paper PMC8222333

target: dAsCas12a K548R (Acidaminococcus sp., UniProt U2UMQ6 1-1307, K548R;D908A;E993A;D1235A); assay: Spec-seq (native PAGE EMSA with sequencing of bound and unbound); 25 mM Tris-HCl pH 7.4, 150 mM KCl, 5 mM MgCl2, 10% glycerol, 1 mM DTT, 40 ng/uL salmon sperm DNA; 400 nM Cas12a, 480 nM crRNA, 50 nM library, 37 C 1 h; native PAGE at room temperature; high values mean tight binding; details: protein: recombinant
reported endpoint: binding signal
Answer with the number, then the unit.

binding signal lookup needed for TGTG (dsDNA) DNA 1: GCTATCTAGTGCTCAGTACGCACTGTGTGAGGAAACTTCTGGCAGGACCAGGTCATGAGATCGGAAGAGCACACGTCTGAACTCCAGTCA DNA 2: TGACTGGAGTTCAGACGTGTGCTCTTCCGATCTCATGACCTGGTCCTGCCAGAAGTTTCCTCACACAGTGCGTACTGAGCACTAGATAGC RNA: AAUUUCUACUCUUGUAGAUAGGAAACUUCUGGCAGGACC , thanks.
-8.2 lnKA
